Conditions: human gut metagenome, 24 h, 2 µM; note: call rule not given here
VALUE KIND: Bacterial Biotransformation

// solved cases for Bacterial Biotransformation follow
COMPOUND	VALUE KIND	RESULT
COc1cc2nc(N3CCN(C(=O)C4COc5ccccc5O4)CC3)nc(N)c2cc1OC.CS(=O)(=O)O (stereo not drawn) [DOXAZOSIN MESYLATE]	Bacterial Biotransformation	Compound NOT metabolized
CC(=O)OCC(=O)NCCCOc1cccc(CN2CCCCC2)c1 [ROXATIDINE ACETATE]	Bacterial Biotransformation	Compound metabolized
CN(C)CCC=C1c2ccccc2COc2ccccc21 [DOXEPIN]	Bacterial Biotransformation	Compound NOT metabolized
N[C@@H](Cc1ccc(N(CCCl)CCCl)cc1)C(=O)O	Bacterial Biotransformation	Compound metabolized

Moving on to another compound below.
Kindly indicate its recorded Bacterial Biotransformation. Item: CCOC(=O)[C@H](CCc1ccccc1)N[C@@H](C)C(=O)N1CCC[C@H]1C(=O)O.O=C(O)/C=C\C(=O)O [ENALAPRIL MALEATE] Compound NOT metabolized

---

Assay: The drug is tested on WLS-350 corresponding to human gut metagenome with ENA study accession number: PRJEB37062 and ENA sample accession number: ERS12561789 for biotransformation under anaerobic condition. The drug concentrations were measured over 9 timepoints collected between 0 and 24 hours of incubation by liquid-chromatography-coupled mass spectrometry (LC–MS)
Settings: 2 µM
VALUE KIND: Bacterial Biotransformation

// solved cases for Bacterial Biotransformation follow
COMPOUND	VALUE KIND	RESULT
COc1ccc2c(c1)c(CC(=O)O)c(C)n2C(=O)c1ccc(Cl)cc1 [INDOMETHACIN]	Bacterial Biotransformation	Compound metabolized
Cc1cc(C)cc(OCC2CNC(=O)O2)c1 (stereo not given) [METAXALONE]	Bacterial Biotransformation	Compound metabolized
CSc1ccc2c(c1)C(N1CCN(C)CC1)Cc1ccccc1S2.O=C(O)/C=C\C(=O)O (stereo not given)	Bacterial Biotransformation	Compound NOT metabolized
CCc1cccc2c3c([nH]c12)C(CC)(CC(=O)O)OCC3 (stereo not given) [ETODOLAC]	Bacterial Biotransformation	Compound NOT metabolized
O=C1N=C([O-])NC1(c1ccccc1)c1ccccc1.[Na+] [PHENYTOIN SODIUM]	Bacterial Biotransformation	Compound metabolized
CCc1oc2ccccc2c1C(=O)c1cc(Br)c(O)c(Br)c1 [BENZBROMARONE]	Bacterial Biotransformation	Compound NOT metabolized

Kindly indicate its recorded Bacterial Biotransformation. Item: CCN(CC)CCOC(=O)C1(C2CCCCC2)CCCCC1 [DICYCLOMINE] Compound NOT metabolized

Kindly indicate its recorded Bacterial Biotransformation. Item: O=P1(N(CCCl)CCCl)NCCCO1 (stereo not given) [CYCLOPHOSPHAMIDE ANHYDROUS] Compound NOT metabolized

Kindly indicate its recorded Bacterial Biotransformation. Item: COc1ccnc(C[S+]([O-])c2nc3ccc(OC(F)F)cc3[nH]2)c1OC (stereo not given) [PANTOPRAZOLE] Compound metabolized

Kindly indicate its recorded Bacterial Biotransformation. Item: CCN(CC)C(=O)C1(c2ccccc2)CC1CN (stereo not given) Compound NOT metabolized

---

Experiment: The drug is tested on Z-010 corresponding to metagenome with ENA study accession number: PRJEB37062 and ENA sample accession number: ERS12561810 for biotransformation under anaerobic condition. The drug concentrations were measured over 9 timepoints collected between 0 and 24 hours of incubation by liquid-chromatography-coupled mass spectrometry (LC–MS)
Details: 2 µM
VALUE KIND: Bacterial Biotransformation

// solved cases for Bacterial Biotransformation follow
MOLECULE	Bacterial Biotransformation
CCOc1cc(CC(=O)N[C@@H](CC(C)C)c2ccccc2N2CCCCC2)ccc1C(=O)O [REPAGLINIDE]	Compound metabolized
CC(=O)CCCCn1c(=O)c2c(ncn2C)n(C)c1=O [PENTOXIFYLLINE]	Compound NOT metabolized
COc1ccc(C(CN(C)C)C2(O)CCCCC2)cc1 (stereo unspecified) [VENLAFAXINE]	Compound NOT metabolized
COc1cc2nc(N3CCN(C(=O)C4CCCO4)CC3)nc(N)c2cc1OC (stereo unspecified) [TERAZOSIN]	Compound metabolized
C[N+]12CCC(CC1)C(OC(=O)C(O)(c1ccccc1)c1ccccc1)C2.[Br-] (stereo unspecified) [CLIDINIUM BROMIDE]	Compound metabolized
O=P1(N(CCCl)CCCl)NCCCO1 (stereo unspecified) [CYCLOPHOSPHAMIDE ANHYDROUS]	Compound NOT metabolized
COc1cc2nc(N3CCN(C(=O)C4COc5ccccc5O4)CC3)nc(N)c2cc1OC.CS(=O)(=O)O (stereo unspecified) [DOXAZOSIN MESYLATE]	Compound metabolized
CCN(CC)CCOC(=O)C1(C2CCCCC2)CCCCC1 [DICYCLOMINE]	Compound metabolized
Br.CN1CCC[C@@H]1Cc1c[nH]c2ccc(CCS(=O)(=O)c3ccccc3)cc12 [ELETRIPTAN HYDROBROMIDE]	Compound NOT metabolized
Cc1cc2c(s1)Nc1ccccc1N=C2N1CCN(C)CC1 [OLANZAPINE]	Compound NOT metabolized

Kindly indicate its recorded Bacterial Biotransformation. Item: C=CC[C@@H]1/C=C(\C)C[C@H](C)C[C@H](OC)[C@H]2O[C@@](O)(C(=O)C(=O)N3CCCC[C@H]3C(=O)O[C@H](/C(C)=C/[C@@H]3CC[C@@H](O)[C@H](OC)C3)[C@H](C)[C@@H](O)CC1=O)[C@H](C)C[C@@H]2OC.O [TACROLIMUS] Compound NOT metabolized

Kindly indicate its recorded Bacterial Biotransformation. Item: N=C(N)NC(=O)Cc1c(Cl)cccc1Cl [GUANFACINE] Compound NOT metabolized

Kindly indicate its recorded Bacterial Biotransformation. Item: CC[C@H](C)C(=O)O[C@H]1CCC=C2C=C[C@H](C)[C@H](CC[C@@H]3C[C@@H](O)CC(=O)O3)[C@H]21 [MEVASTATIN] Compound NOT metabolized

Kindly indicate its recorded Bacterial Biotransformation. Item: CC(C)c1c(CN(C)C(C)Cc2ccccc2)n(C)n(-c2ccccc2)c1=O (stereo unspecified) [FAMPROFAZONE] Compound metabolized

Kindly indicate its recorded Bacterial Biotransformation. Item: CN(C/C=C/C#CC(C)(C)C)Cc1cccc2ccccc12 [TERBINAFINE] Compound NOT metabolized

Kindly indicate its recorded Bacterial Biotransformation. Item: C[C@]12C=CC(=O)C=C1CC[C@@H]1[C@@H]2C(=O)C[C@@]2(C)[C@H]1CC[C@]2(O)C(=O)CO [PREDNISONE] Compound metabolized

All figures here come from ChEMBL document CHEMBL5724914.
